# system-under-test: Cyclin-dependent kinase 4/cyclin D1 (Homo sapiens, UniProt P11802)
# Sequence (P11802 whole entry): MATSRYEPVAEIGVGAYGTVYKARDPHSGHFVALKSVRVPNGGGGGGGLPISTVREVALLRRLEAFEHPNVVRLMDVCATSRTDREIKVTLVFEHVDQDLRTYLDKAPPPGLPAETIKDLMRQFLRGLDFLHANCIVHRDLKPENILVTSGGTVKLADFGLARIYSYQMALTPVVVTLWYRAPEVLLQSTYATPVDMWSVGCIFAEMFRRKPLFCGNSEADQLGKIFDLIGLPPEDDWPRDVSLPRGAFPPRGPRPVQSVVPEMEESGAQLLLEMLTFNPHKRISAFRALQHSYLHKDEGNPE
# Sequence (P24385 whole entry, further chain): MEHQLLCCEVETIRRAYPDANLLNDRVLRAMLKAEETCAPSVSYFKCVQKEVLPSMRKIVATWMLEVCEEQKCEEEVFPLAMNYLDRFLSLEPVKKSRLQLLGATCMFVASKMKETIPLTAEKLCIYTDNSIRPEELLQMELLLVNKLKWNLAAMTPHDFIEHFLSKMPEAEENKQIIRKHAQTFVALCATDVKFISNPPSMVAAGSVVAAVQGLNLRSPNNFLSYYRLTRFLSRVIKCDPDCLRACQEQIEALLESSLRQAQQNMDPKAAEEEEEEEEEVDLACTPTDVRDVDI
# experiment-notes: Inhibition of CDK4/cyclin D1 (unknown origin)
# Type: protein-complex assay
measurement-name: IC50 (µM)
Kindly provide the numeric value in µM only, without the unit symbol.

Incoming: Write down the reported IC50 of COC(=O)c1ccc(Nc2ncc3cc(C(=O)N(C)C)n(C4CCCC4)c3n2)cc1 , test system: Cyclin-dependent kinase 4/cyclin D1 (Homo sapiens, UniProt P11802).
Outgoing: 0.112

----------
The following compounds are shown together with reported Tmax values.
# experiment-notes: Tmax in Sprague-Dawley rat at 200 mg/kg, po
# Assay type: ADME, organism-based
# setup-conditions: in vivo
Kindly provide the numeric value in min only, without the unit symbol.

Incoming: Requested field: Tmax. Item: CN(C)C(=O)c1cc2cnc(Nc3ccc(C(=O)NCCCCCCNc4cccc5c4C(=O)N(C4CCC(=O)NC4=O)C5=O)cc3)nc2n1C1CCCC1 (configuration not stated)
Outgoing: 15

Incoming: Requested field: Tmax. Item: CN(C)C(=O)c1cc2cnc(Nc3ccc(C(=O)NCCCCCCNc4cccc5c4C(=O)N(C4CCC(=O)N(COC(=O)C(C)(C)C)C4=O)C5=O)cc3)nc2n1C1CCCC1 (configuration not stated)
Outgoing: 15
